Data provenance is ChEMBL document CHEMBL5058577.

# reported Population Apoptotic (%); entries follow
- Tested on: Fibroblast
- Assay explanation: Multiplex assay against human fibroblast
- Type: toxicity, cell-based
- Test parameters: 48 h, 1 µM, compound concentration 1 uM, replicate 2
Readout name: Population Apoptotic (%)

Compound	Display unit	Assay result
C[C@H](N)COC(=O)[C@@H](CCCCN)NC(=O)Cc1c(-c2ccc3ccccc3c2)[nH]c2c1ccc1ccccc12	%	51
Cl.N=C(N)NC(=O)Cc1c(Cl)cccc1Cl [GUANFACINE HYDROCHLORIDE]	%	50
N#Cc1cc(F)cc(-c2nc(-c3ccc(F)cn3)no2)c1	%	50
CN1CCN(c2cc(-c3ccccc3)nc(N)n2)CC1	%	50
